Experiment: NCI Yeast Anticancer Drug Screen. Data for the cln2 rad14 strain (AID 165);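 also: 0% = growth equal to vehicle treated cultures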
Settings: S. cerevisiae cln2 rad14 strain, at 5.0 µM (retest, dose inferred, filed as 0.5), stronger effect = higher value
Experimental: Growth inhibition of yeast strains with defined genetic alterations is measured as a screen for potential anti-cancer activity. Selected strains with alterations in DNA damage repair or cell cycle control were exposed to compounds and growth inhibition was measured relative to vehicle treated controls. The strain used in this assay is cln2 rad14
The panel holds about 79,000 compounds, 15% with a hit somewhere; the sample as a whole holds those more often.
The following compounds are shown together with reported growth inhibition values.
Numbers only here, please. The scale is %.

>  <compound>
COc1ccc(N=C2C(=S)N(c3ccc(OC)cc3)/C(=N/S(=O)(=O)c3ccccc3)N2c2ccccc2)cc1

>  <units.text>
%

>  <growth inhibition>
-11

$$$$
>  <compound>
O=C(c1ccccc1)C(C(=O)c1ccccc1)c1ccc2ccccc2n1

>  <units.text>
%

>  <growth inhibition>
-2

$$$$
>  <compound>
CCN(CC)c1c(C(=O)/C=C/c2ccc(OC)cc2)c(-c2ccccc2)nn(C)c1=O

>  <units.text>
%

>  <growth inhibition>
9

$$$$
>  <compound>
CCCC/C=C\CCCCCCCCCC1=C(O)C(=O)C=C(OC)C1=O

>  <units.text>
%

>  <growth inhibition>
40

$$$$
>  <compound>
CCOC(=O)CC[P+](Cc1ccccc1)(c1ccccc1)c1ccccc1

>  <units.text>
%

>  <growth inhibition>
4

$$$$
>  <compound>
CCCCCC(CN(C)C)C(=O)/C=C/c1ccc(Cl)cc1 (configuration not stated)

>  <units.text>
%

>  <growth inhibition>
-1

$$$$

What the record says about Oc1ccccc1N=CC1CCCCC1 : growth inhibition is -53

Measured growth inhibition, COc1ccc(/C=C2\CN(C)C/C(=C\c3ccc(OC)c(OC)c3OC)C2=O)c(OC)c1OC : 7

Record C(=C/c1ccccc1)/C=N/Nc1ccccc1 . Reported growth inhibition: -61

Sample O=C1/C(=C/N2CCN(c3ccccc3)CC2)Cc2c(Cl)cccc21 ; growth inhibition observed: 64

The compound Nc1ncnc2c1c(-c1ccccc1)cn2-c1ccccc1 showed growth inhibition equal to 20

Quick note, growth inhibition for CCOC(=O)/C=C\c1c(Cl)n(-c2ccccc2)c(=O)n(-c2ccccc2)c1=O landed at 26

The recorded growth inhibition for CN=c1ss/c(=N\C(=S)N(C)C)n1-c1ccccc1 is 8

response.value for Cc1cc(C2C(O)C(c3cc(C)on3)C2(C)O)no1 (configuration not stated) (field: growth inhibition) = -2

growth inhibition reported for this compound CCCCCCCCCCCC(=O)NN : -3

Looking up CC(C)(C)c1cc2c3c(c1)Oc1cc(C(C)(C)C)cc4c1C3(O)c1c(cc(C(C)(C)C)cc1O4)O2 , I found its growth inhibition recorded as 14

For record Cc1ccc2c(c1)CSCCO2 the listed growth inhibition is 50

O=C(NNc1nc(-c2ccccc2)cs1)C(F)(F)F has a reported growth inhibition of 50

====

growth inhibition values by entry
Assay: NCI Yeast Anticancer Drug Screen. Data for the cln2 rad14 strain (AID 165);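 also: 0% = growth equal to vehicle treated cultures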
Conditions: S. cerevisiae cln2 rad14 strain, at 50.0 µM, stronger effect = higher value
This is part of a sample that, as a whole, favours compounds with a hit. Of some 79,000 tested, about 15% had one in any assay.
Report as a plain number; the unit % is understood.

Consider the reported growth inhibition for these compounds:
>  <compound>
Cc1cc(C)c(Cc2cc(C(C)(C)C)cc(C)c2O)cc1Cc1cc(C(C)(C)C)cc(C)c1O

>  <measured.number>
69.3

$$$$
>  <compound>
Cc1nc(C(N)=S)sc1C(=O)C/C(=N/N)C(=O)Nc1cccc(Cl)c1C

>  <measured.number>
-15.2

$$$$
>  <compound>
CCOC(=O)C1=C(C)NC(C)=C(C(=O)OCC)C1c1c(-c2ccccc2)noc1C

>  <measured.number>
-3.5

$$$$
>  <compound>
O=C(OCc1ccccc1)C(O)c1ccccc1 (stereo unspecified)

>  <measured.number>
41.1

$$$$
>  <compound>
CC(C)(CN1CCCCC1)C(/C=C/c1ccc(Cl)c(Cl)c1)=N\NC(=O)N/N=C(/C=C/c1ccc(Cl)c(Cl)c1)C(C)(C)CN1CCCCC1

>  <measured.number>
91.2

$$$$

The reported value for COc1ccc2c(c1)CCC1C2CCC2(C)C(=O)C(SC3=NC=NC4=NC=NC43)CC12 (stereo unspecified) in terms of growth inhibition is 91.8

Lookup result for Cc1cc(C(=O)c2ccccc2)ccc1O ; measured growth inhibition: -8.4

Form field growth inhibition, entry Oc1cc(O)cc(O)c1 : 7.85

GET /value?item= O=C(CC(O)c1ccccc1)Sc1ccccc1 (stereo unspecified) &field=growth inhibition returns -9.2

GET /value?item= C=CC(=O)NC(C)C &field=growth inhibition returns 16.7

growth inhibition recorded for this compound, N#Cc1cccc2c1Sc1ccccc1N2 , is 90.1
